Every entry's value here was drawn from patent US6800658B2.

property label: melting point

Example compounds with recorded melting point:
Please look up its melting point: Clc1ccccc1COC1CC(c2ccccc2)(c2ccccc2)c2ccccc21 (centres unmarked)
27 to 29 °C

Please look up its melting point: OC1=C(CCC2OCCO2)C(c2ccccc2)(c2ccccc2)c2ccccc21
124 to 126 °C

Further cases:
Please look up its melting point: O/N=C1\CC(c2ccc(Cl)cc2)(c2ccc(Cl)cc2)c2ccc(Cl)cc21
85 °C

Please look up its melting point: COC(=O)c1ccc(COC2CC(c3ccccc3)(c3ccccc3)c3ccccc32)cc1 (centres unmarked)
50 to 52 °C

Please look up its melting point: COC(=O)C1C(=O)c2ccccc2C1(c1ccccc1)c1ccccc1 (centres unmarked) [Compound 15, 3,3-Diphenylindanone-2-methyl acetate]
140 to 142 °C
